Each recorded value in this set is attributed to patent US12404250B2.

Measured pIC50 of individual entries
- system: UniProt Q2NL67
- Sequence (Q2NL67 whole entry): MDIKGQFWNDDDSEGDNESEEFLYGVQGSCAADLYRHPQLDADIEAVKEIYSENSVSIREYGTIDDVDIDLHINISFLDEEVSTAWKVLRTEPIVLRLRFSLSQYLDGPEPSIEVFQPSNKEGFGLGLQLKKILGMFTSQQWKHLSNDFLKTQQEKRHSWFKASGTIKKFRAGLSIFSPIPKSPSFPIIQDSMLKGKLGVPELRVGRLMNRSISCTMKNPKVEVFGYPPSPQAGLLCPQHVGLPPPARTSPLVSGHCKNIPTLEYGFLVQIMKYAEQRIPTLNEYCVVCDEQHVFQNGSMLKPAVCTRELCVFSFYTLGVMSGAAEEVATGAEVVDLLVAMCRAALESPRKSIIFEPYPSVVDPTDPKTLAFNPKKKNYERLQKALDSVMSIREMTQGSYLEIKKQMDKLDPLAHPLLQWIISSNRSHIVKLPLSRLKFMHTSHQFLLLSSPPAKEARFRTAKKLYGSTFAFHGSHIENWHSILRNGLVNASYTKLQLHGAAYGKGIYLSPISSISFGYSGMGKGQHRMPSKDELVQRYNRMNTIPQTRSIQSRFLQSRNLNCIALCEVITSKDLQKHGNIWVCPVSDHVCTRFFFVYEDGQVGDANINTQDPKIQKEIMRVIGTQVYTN
pIC50: −log10 of the molar value.

compound | result
CC#Cc1ccc2c(=O)[nH]c(CSc3ccc(C(=O)O)cc3)nc2c1C [ITK6] | < 5.52

Now for a further compound.
Challenge: Field: pIC50 (UniProt Q2NL67). Entry: CC#Cc1ccc2c(=O)[nH]c(CSc3ncccn3)nc2c1C [ITK7]
Response given: < 5.52

----------
Lab note: pIC50 readings collected with PARP 3 (Homo sapiens, UniProt Q9Y6F1) for the following molecules.
Sequence (Q9Y6F1 whole entry): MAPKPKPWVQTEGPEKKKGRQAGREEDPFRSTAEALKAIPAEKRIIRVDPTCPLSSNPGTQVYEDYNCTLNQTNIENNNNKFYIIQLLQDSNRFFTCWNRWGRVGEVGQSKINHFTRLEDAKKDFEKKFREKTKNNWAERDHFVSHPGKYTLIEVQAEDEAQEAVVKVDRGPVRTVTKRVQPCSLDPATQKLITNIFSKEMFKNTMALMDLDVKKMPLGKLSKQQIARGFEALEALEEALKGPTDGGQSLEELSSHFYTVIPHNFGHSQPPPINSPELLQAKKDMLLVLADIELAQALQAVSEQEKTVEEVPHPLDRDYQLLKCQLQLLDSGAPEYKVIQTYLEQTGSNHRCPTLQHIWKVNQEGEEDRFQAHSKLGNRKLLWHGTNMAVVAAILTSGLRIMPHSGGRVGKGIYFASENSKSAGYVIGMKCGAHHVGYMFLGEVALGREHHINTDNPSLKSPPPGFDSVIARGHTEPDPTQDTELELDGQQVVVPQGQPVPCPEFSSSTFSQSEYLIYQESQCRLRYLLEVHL
pIC50: −log10 of the molar value.

Field: example entries. Status: answers known.
testSmiles | system | pIC50
Cc1ccc2c(=O)[nH]c(CSc3ccc(C(=O)O)cc3)nc2c1C | PARP 3 (Homo sapiens, UniProt Q9Y6F1) | < 4.52
Cc1ccc2c(=O)[nH]c(CSc3ncccn3)nc2c1C | PARP 3 (Homo sapiens, UniProt Q9Y6F1) | < 4.52
Cc1ccc2c(=O)[nH]c(CSc3nnc(N)[nH]3)nc2c1C | PARP 3 (Homo sapiens, UniProt Q9Y6F1) | < 4.52
CC#Cc1ccc2c(=O)[nH]c(CSc3ncccn3)nc2c1C | PARP 3 (Homo sapiens, UniProt Q9Y6F1) | < 4.52
C#Cc1ccc2c(=O)[nH]c(CSc3ccc(C(=O)O)cc3)nc2c1C | PARP 3 (Homo sapiens, UniProt Q9Y6F1) | < 4.52

Now for a further molecule.
Challenge: Field: pIC50 (PARP 3 (Homo sapiens, UniProt Q9Y6F1)). Entry: `Cc1ccc2c(=O)[nH]c(CSc3ncnc4nc[nH]c34)nc2c1C`
Response given: < 4.52

----------
- system: PARP15 cat (Homo sapiens)
- Sequence (Q460N3 482-678 limits assumed): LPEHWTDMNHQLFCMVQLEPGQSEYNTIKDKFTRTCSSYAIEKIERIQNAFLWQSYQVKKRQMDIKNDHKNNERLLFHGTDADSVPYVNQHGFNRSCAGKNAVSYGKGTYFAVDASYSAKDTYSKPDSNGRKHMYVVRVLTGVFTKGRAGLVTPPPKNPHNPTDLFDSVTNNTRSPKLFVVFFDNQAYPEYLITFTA
Measured IC50 of individual entries
Express it in µM; write the number only.

Field: example entries. Status: answers known.
testSmiles | result
C#Cc1ccc2c(=O)[nH]c(CSc3ccc(C(=O)O)cc3)nc2c1C | 4.03
Cc1ccc2c(=O)[nH]c(CSc3ccc(C(=O)O)cc3)nc2c1C | 6.85

Now for a further compound.
Challenge: Field: IC50 (PARP15 cat (Homo sapiens)). Entry: `CC#Cc1ccc2c(=O)[nH]c(CSc3ccc(C(=O)O)cc3)nc2c1C`
Response given: 0.496

----------
- system: PARP10cat (Homo sapiens, UniProt Q53GL7)
- Construct: bcat; cat; PARP11
- Sequence (Q53GL7 806-1025 limits assumed): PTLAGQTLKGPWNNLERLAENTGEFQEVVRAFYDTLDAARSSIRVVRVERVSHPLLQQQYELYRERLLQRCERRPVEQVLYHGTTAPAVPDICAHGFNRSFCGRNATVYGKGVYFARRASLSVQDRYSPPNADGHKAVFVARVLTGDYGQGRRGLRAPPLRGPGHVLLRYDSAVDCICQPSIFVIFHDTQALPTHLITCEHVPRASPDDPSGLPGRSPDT
- assayName: In vitro IC50, PARP10cat
- Assay type: biochemical
- particulars: SEM from a minimum of three dose-response experiments
endpointName: pIC50
# reply with the number alone; pIC50 is -log10 of concentration in mol/L

Field: example entries. Status: answers known.
testSmiles | system | pIC50
Cc1ccc2c(=O)[nH]c(CSc3nnc(N)[nH]3)nc2c1C | PARP10cat (Homo sapiens, UniProt Q53GL7) | 4.55
Cc1ccc2c(=O)[nH]c(CSc3ncccn3)nc2c1C | PARP10cat (Homo sapiens, UniProt Q53GL7) | 4.71
CC#Cc1ccc2c(=O)[nH]c(CSc3ncccn3)nc2c1C | PARP10cat (Homo sapiens, UniProt Q53GL7) | 5.03
Cc1ccc2c(=O)[nH]c(CSc3ccc(C(=O)O)cc3)nc2c1C | PARP10cat (Homo sapiens, UniProt Q53GL7) | 5.03
Cc1ccc2c(=O)[nH]c(CSc3ncnc4nc[nH]c34)nc2c1C | PARP10cat (Homo sapiens, UniProt Q53GL7) | 4.48
C#Cc1ccc2c(=O)[nH]c(CSc3ccc(C(=O)O)cc3)nc2c1C | PARP10cat (Homo sapiens, UniProt Q53GL7) | 5.27

Challenge: Field: pIC50 (PARP10cat (Homo sapiens, UniProt Q53GL7)). Entry: `CC#Cc1ccc2c(=O)[nH]c(CSc3ccc(C(=O)O)cc3)nc2c1C`
Response given: 6.81

----------
Target sequence: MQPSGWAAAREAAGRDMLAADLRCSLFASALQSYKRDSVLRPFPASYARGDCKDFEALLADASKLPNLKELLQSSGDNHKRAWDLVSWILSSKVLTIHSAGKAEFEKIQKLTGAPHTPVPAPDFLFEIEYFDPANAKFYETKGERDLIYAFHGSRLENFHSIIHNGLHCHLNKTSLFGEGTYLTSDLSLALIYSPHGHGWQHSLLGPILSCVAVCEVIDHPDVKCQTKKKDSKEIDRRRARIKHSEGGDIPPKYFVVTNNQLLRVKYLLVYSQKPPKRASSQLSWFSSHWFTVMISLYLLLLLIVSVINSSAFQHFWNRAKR
pIC50: −log10 of the molar value.
endpointName: pIC50

Challenge: Reported pIC50 for `CC#Cc1ccc2c(=O)[nH]c(CSc3ncccn3)nc2c1C` : what is it?
Response given: < 5.52

----------
- system: PARP12 (Homo sapiens)
- Sequence (Q9H0J9 1-701): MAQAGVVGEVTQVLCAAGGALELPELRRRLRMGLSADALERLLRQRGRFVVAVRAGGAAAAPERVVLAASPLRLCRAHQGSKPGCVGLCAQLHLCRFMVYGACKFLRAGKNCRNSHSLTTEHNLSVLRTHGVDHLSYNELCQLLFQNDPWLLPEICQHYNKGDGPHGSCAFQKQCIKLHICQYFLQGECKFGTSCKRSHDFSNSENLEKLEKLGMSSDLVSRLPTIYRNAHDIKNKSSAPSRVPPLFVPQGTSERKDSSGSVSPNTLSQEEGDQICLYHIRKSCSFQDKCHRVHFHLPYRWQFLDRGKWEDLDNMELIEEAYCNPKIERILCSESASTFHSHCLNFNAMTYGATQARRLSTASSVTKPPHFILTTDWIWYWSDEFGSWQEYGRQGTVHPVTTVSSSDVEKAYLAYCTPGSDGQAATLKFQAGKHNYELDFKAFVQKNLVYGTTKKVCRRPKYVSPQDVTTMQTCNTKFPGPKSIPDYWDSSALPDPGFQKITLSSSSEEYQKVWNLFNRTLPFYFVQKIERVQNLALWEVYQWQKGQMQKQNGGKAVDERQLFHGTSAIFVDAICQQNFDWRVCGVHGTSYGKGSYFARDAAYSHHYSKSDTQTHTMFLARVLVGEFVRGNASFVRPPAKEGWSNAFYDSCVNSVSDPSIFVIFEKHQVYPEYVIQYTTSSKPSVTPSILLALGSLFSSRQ
pIC50: −log10 of the molar value.
endpointName: pIC50

Challenge: Field: pIC50 (PARP12 (Homo sapiens)). Entry: CC#Cc1ccc2c(=O)[nH]c(CSc3ncccn3)nc2c1C [ITK7]
Response given: < 5.52

----------
- system: PARP5 bcat (Homo sapiens, UniProt Q9H2K2)
- Sequence (Q9H2K2 959-1164): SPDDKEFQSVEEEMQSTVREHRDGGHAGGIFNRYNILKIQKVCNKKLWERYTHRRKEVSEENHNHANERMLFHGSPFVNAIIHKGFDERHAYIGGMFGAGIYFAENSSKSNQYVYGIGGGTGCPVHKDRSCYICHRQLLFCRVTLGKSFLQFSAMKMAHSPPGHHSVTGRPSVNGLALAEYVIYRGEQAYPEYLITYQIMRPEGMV
endpointName: IC50

compound | IC50
CC#Cc1ccc2c(=O)[nH]c(CSc3ccc(C(=O)O)cc3)nc2c1C [ITK6] | > 30 µM
Cc1ccc2c(=O)[nH]c(CSc3ncnc4nc[nH]c34)nc2c1C [ITK2] | > 10 µM
Cc1ccc2c(=O)[nH]c(CSc3nnc(N)[nH]3)nc2c1C [ITK3] | > 10 µM
Cc1ccc2c(=O)[nH]c(CSc3ncccn3)nc2c1C [ITK1] | > 10 µM
C#Cc1ccc2c(=O)[nH]c(CSc3ccc(C(=O)O)cc3)nc2c1C [ITK5] | > 10 µM
CC#Cc1ccc2c(=O)[nH]c(CSc3ncccn3)nc2c1C [ITK7] | > 30 µM

Now for a further compound.
Challenge: Reported IC50 for Cc1ccc2c(=O)[nH]c(CSc3ccc(C(=O)O)cc3)nc2c1C [ITK4] : what is it?
Response given: > 10 µM
